system: human Kv1.3 (Homo sapiens, UniProt P22001 1-575)
Sequence (P22001 whole entry): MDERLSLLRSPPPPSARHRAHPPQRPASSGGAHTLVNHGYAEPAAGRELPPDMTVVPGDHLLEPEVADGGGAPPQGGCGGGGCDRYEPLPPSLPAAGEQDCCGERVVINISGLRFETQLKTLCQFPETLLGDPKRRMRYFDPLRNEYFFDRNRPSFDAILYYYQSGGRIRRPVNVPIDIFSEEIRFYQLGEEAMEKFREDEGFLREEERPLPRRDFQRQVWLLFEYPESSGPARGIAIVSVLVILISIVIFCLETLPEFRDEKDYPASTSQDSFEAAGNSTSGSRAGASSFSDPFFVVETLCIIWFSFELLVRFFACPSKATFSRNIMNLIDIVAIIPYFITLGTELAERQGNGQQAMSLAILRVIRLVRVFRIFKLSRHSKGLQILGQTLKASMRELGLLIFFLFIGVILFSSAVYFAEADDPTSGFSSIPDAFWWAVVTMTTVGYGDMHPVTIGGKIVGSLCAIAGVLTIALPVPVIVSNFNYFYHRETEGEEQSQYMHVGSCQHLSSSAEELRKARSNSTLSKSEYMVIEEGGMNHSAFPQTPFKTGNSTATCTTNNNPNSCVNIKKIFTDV
experimentSummary: cell-based or functional assay
endpoint: Average IC50, Kv1.3 current, IonWorks perforated patch clamp, CHL cells (nM)
One number for each entry, in nM.

A019400014 (other, Biparatopic Nanobody construct (family 1 - family 12); also called A019400003-35GS-A0194009G09; A019400011) EVQLVESGGGLVQAGGSLSLSCTASGGTFRNFGMGWFRQAQGKEREFVAAISRTGGHTYYQDSVKGRFTISKDNAKNILSLQMNSLKPEDTAVYYCAARFRFGDGTYYYQRAFYDFWGQGTLVTVSSGGGGSGGGGSGGGGSGGGGSGGGGSGGGGSGGGGSEVQLVESGGGLVQAGGSLGLSCSASGLLFSRNSAGWYRQAPGKQREFVARIRMGGSINYADTVKGRFTISRDNAKNTVYLQMNSLKPEDTAVYYCSSWRTGFYEYWGQGTLVTVSS | 14
A019400032 (VHH) DVQLVESGGGLVQAGGSLGLSCSASGLLFSRNSAGWYRQAPGKRREFVARIRMGGSINYADSVKGRFTVSRDNAKNMMYLQMNDLKPEDTAVYFCSGWREGFYEYWGQGTLVTVSSGGGGSGGGGSGGGGSGGGGSGGGGSGGGGSGGGGSEVQLVESGGGLVQAGGSLGLSCSASGLLFSRNSAGWYRQAPGKRREFVARIRMGGSINYADSVKGRFTVSRDNAKNMMYLQMNDLKPEDTAVYFCSGWREGFYEYWGQGTLVTVSS | 1.2

Please find the next binder below.
Name the recorded Average IC50, Kv1.3 current, IonWorks perforated patch clamp, CHL cells for A019400012 (other) EVQLVESGGGLVQAGGSLGLSCSASGLLFSRNSAGWYRQAPGKQREFVARIRMGGSINYADTVKGRFTISRDNAKNTVYLQMNSLKPEDTAVYYCSSWRTGFYEYWGQGTLVTVSSGGGGSGGGGSGGGGSGGGGSGGGGSGGGGSGGGGSEVQLVESGGGLVQAGGSLSLSCTASGGTFRNFGMGWFRQAQGKEREFVAAISRTGGHTYYQDSVKGRFTISKDNAKNILSLQMNSLKPEDTAVYYCAARFRFGDGTYYYQRAFYDFWGQGTLVTVSS .
4.2
